System: Bacillus subtilis
Test: Antibacterial activity against Bacillus subtilis168 assessed as inhibition of bacterial growth measured after 18 hrs by two fold serial dilution method
Format: functional
Conditions: subsp. subtilis str. 168
measured metric: MIC

Answered cases to consult:
structure smiles	measured metric	result
NC[C@H]1O[C@H](O[C@H]2[C@H](O)[C@@H](O[C@H]3O[C@H](CO)[C@@H](O)[C@H](N)[C@H]3O)[C@H](N)C[C@@H]2N)[C@H](O)[C@@H](O)[C@@H]1O	MIC	9.39 µg/mL
O=c1[nH]c2cc(O)ccc2c2oc3ccc(O)c(CN4CCCCC4)c3c12	MIC	> 25 µg/mL
CN[C@H](CC(C)C)C(=O)N[C@H]1C(=O)N[C@@H](CC(N)=O)C(=O)N[C@H]2C(=O)N[C@H]3C(=O)N[C@H](C(=O)N[C@H](C(=O)O)c4cc(O)cc(O)c4-c4cc3ccc4O)[C@H](O)c3ccc(c(Cl)c3)Oc3cc2cc(c3O[C@@H]2O[C@H](CO)[C@@H](O)[C@H](O)[C@H]2O[C@H]2C[C@](C)(N)[C@H](O)[C@H](C)O2)Oc2ccc(cc2Cl)[C@H]1O	MIC	> 25 µg/mL

In the following, a different compound is considered.
Item "CN(C)[C@@H]1C(O)=C(C(N)=O)C(=O)[C@@]2(O)C(O)=C3C(=O)c4c(O)cccc4[C@@](C)(O)[C@H]3C[C@@H]12" with Bacillus subtilis - MIC?
> 25 µg/mL

###

Test system: Mycobacterium tuberculosis
Assay: Binding affinity to wild type Mycobacterium tuberculosis Pks13-TE expressed in Escherichia coli BL21(DE3)pLysS assessed as change in melting temperature at protein to compound molar ratio of 1:10 incubated for 30 mins by nanoDSF assay
Field 'label' (enum: yes (1) / no (0)). Set to yes (1) when ΔTm is strictly under 8 °C; else no (0).

The following compounds have reported results that may help.
> print(dat)
                           structure.smiles                study.target  answer.label
1  O=c1oc2ccccc2c2sc3ccc(O)c(CN4CCCCC4)c3c12  Mycobacterium tuberculosis        no (0)
2  CCOC(=O)c1c(-c2ccccc2)sc2ccc(O)c(CN3CCCCC3)c12  Mycobacterium tuberculosis       yes (1)
3  O=c1[nH]c2cc(O)ccc2c2oc3ccc(O)c(CN4CCCCC4)c3c12  Mycobacterium tuberculosis        no (0)

Please indicate whether the reported ΔTm of "O=c1[nH]c2ccc(O)cc2c2oc3ccc(O)c(CN4CCCCC4)c3c12" is strictly below 8 °C.
no (0)

###

Assay: Selective index, ratio of CC50 for African green monkey Vero cells to IC50 for Mycobacterium tuberculosis H37Rv
measured metric: Ratio CC50/IC50
Reply: number alone, nothing else.

Data request, read-out Ratio CC50/IC50, for "O=c1[nH]c2ccc(F)cc2c2oc3ccc(O)c(CN4CCCCC4)c3c12"
16

What do we get for "O=c1[nH]c2cc(Cl)ccc2c2oc3ccc(O)c(CN4CCCCC4)c3c12" ?
64

What do we get for "O=c1[nH]c2ccc(O)cc2c2oc3ccc(O)c(CN4CCCCC4)c3c12" ?
16

What do we get for "O=c1[nH]c2cc(Br)ccc2c2oc3ccc(O)c(CN4CCCCC4)c3c12" ?
128

What do we get for "O=c1[nH]c2cc(F)ccc2c2oc3ccc(O)c(CN4CCCCC4)c3c12" ?
32

What do we get for "O=c1[nH]c2cc(O)ccc2c2oc3ccc(O)c(CN4CCCCC4)c3c12" ?
64

What do we get for "COc1ccc2c(c1)[nH]c(=O)c1c2oc2ccc(O)c(CN3CCCCC3)c21" ?
256

Value source: ChEMBL document CHEMBL4732169
